Taken from patent US9663494B2.

molecular target: Bruton's Tyrosine Kinase (BTK), inactivated state (Homo sapiens (Human)); assay: Bruton's Tyrosine Kinase (BTK) Inhibition TR-FRET (Time Resolved FRET) competition assay; settings: BTK-Eu / Kinase Tracer 178 competition, incubated 18-24 h at 14° C.
Sequence (Q06187 whole entry): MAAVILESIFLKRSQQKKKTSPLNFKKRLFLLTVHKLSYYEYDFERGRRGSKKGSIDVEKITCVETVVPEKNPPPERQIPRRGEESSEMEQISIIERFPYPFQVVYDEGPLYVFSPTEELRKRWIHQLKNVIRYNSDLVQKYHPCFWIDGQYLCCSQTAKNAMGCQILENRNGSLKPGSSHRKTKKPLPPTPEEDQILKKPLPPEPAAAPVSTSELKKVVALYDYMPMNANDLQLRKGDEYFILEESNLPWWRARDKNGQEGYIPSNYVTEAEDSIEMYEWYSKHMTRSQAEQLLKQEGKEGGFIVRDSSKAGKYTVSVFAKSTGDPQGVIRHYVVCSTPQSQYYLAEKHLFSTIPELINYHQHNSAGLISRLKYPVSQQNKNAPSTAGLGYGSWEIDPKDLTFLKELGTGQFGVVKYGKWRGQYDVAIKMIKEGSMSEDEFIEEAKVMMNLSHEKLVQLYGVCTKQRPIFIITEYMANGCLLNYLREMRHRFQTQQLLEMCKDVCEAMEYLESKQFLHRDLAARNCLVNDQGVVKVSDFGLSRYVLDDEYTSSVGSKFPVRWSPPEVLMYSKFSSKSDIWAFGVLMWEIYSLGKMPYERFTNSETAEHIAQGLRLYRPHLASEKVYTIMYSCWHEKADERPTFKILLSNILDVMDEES
pIC50: −log10 of the molar value.
experimental readout: pIC50

>  <molecule>
Cn1cc(-c2cccc(N3CCc4cc(C(C)(C)C)ncc4C3=O)c2CO)cc(Nc2ccc(C(=O)N3CCOCC3)cn2)c1=O [Compound 5]

>  <target>
Bruton's Tyrosine Kinase (BTK), inactivated state (Homo sapiens (Human))

>  <pIC50>
7.86

$$$$
>  <molecule>
Cn1nc(-c2cccc(N3CCOc4cc(C(C)(C)C)ccc4C3=O)c2CO)cc(Nc2ccc(S(C)(=O)=O)cn2)c1=O [Compound 9]

>  <target>
Bruton's Tyrosine Kinase (BTK), inactivated state (Homo sapiens (Human))

>  <pIC50>
8.37

$$$$
>  <molecule>
Cn1nc(-c2cccc(-n3ccc4cc(C(C)(C)C#N)cc(F)c4c3=O)c2CO)cc(Nc2ccc(OC(C)(C)CO)cn2)c1=O [Compound 2]

>  <target>
Bruton's Tyrosine Kinase (BTK), inactivated state (Homo sapiens (Human))

>  <pIC50>
8.95

$$$$
>  <molecule>
Cn1nc(-c2cccc(N3CCc4cc(C(C)(C)C#N)ccc4C3=O)c2CO)cc(Nc2ccc(C(=O)N3CCOCC3)cn2)c1=O [Compound 1]

>  <target>
Bruton's Tyrosine Kinase (BTK), inactivated state (Homo sapiens (Human))

>  <pIC50>
7.95

$$$$

(P) Cn1nc(-c2cccc(N3CCOc4cc(C(C)(C)C)ccc4C3=O)c2CO)cc(Nc2ccc(C(=O)N3CCOCC3)cn2)c1=O [Compound 8]
(Q) Cn1nc(-c2cccc(N3CCc4cc(C(C)(C)C)ncc4C3=O)c2CO)cc(Nc2ccc(C(=O)N3CCOCC3)cn2)c1=O [Compound 6]
(R) Cn1nc(-c2cccc(N3CCOc4cc(C(C)(C)CO)ccc4C3=O)c2CO)cc(Nc2ccc(S(C)(=O)=O)cn2)c1=O [Compound 3]
(S) Cc1c(-c2cc(Nc3ccc(C(=O)N4CCOCC4)cn3)c(=O)n(C)n2)cccc1-n1ncc2cc(C(C)(C)C)cc(F)c2c1=O [Compound 7]
(T) Cn1cc(-c2cccc(NC(=O)N3Cc4ccc(Cl)cc4C3)c2CO)cc(Nc2ccc(C(=O)N3CCOCC3)cn2)c1=O [Compound 4]
input: Which order do these items take when sorted by rising pIC50? List them. Order the labels as requested and give them as your answer.
output: R, T, Q, S, P
